Reference source: the supplement of paper PMC7877785

assay.summary: self-splicing fitness, log relative to wild type (ln ratio); higher = more splicing; Tetrahymena group I intron in knt gene, E. coli kanamycin selection, DiMSum; sequences stand for … in CUCUCU…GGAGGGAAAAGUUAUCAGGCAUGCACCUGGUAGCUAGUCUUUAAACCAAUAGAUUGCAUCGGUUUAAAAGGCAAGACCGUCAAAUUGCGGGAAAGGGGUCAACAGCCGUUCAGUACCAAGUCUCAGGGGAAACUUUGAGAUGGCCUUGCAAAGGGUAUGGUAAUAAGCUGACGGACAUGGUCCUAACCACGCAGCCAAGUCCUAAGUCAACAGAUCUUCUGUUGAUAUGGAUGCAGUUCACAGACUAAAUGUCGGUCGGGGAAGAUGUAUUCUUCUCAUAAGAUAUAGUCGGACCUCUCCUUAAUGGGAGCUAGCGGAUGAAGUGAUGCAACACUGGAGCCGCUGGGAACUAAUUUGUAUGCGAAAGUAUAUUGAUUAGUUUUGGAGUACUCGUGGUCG;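 also: selection with 25 µg/mL kanamycin versus none on LB agar overnight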
test.context: 30 °C
Listing of entries alongside the reported self-splicing fitness (ln).
// no unit string in output, number only

{"sequence.string": "AACCAGCAAUAUUACGAGAA", "self-splicing fitness (ln)": -1.71}
{"sequence.string": "AGCAAGCAAUAUUACGUCAG", "self-splicing fitness (ln)": -2.89}

(Q) Fill in: self-splicing fitness (ln) of AAUCAGCAAUAUUACGUCAU is ___
(A) 0.166

(Q) What does the data say about its self-splicing fitness (ln)? Entry: CUGCAGCAAUAUUACGGCCC
(A) -2.85

----------
assay.summary: self-splicing fitness, log relative to wild type (ln ratio); higher = more splicing; Tetrahymena group I intron in knt gene, E. coli kanamycin selection, DiMSum; sequences stand for … in CUCUCU…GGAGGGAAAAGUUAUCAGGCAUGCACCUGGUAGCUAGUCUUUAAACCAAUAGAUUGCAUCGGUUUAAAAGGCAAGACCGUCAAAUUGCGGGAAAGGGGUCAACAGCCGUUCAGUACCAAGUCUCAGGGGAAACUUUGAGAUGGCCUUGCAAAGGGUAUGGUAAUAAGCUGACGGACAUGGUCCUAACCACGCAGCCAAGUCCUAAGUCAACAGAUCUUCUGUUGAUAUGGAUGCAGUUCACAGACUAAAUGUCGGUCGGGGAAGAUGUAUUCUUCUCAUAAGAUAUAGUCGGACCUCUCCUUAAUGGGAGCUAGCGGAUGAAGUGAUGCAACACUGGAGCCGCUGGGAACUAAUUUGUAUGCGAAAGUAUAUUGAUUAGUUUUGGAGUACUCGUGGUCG
test.context: 30 °C
experimental.endpoint: self-splicing fitness (ln)
No unit in the answer, only the number.

{"sequence.string": "GUUAAGCAAUAUUACGACUC", "self-splicing fitness (ln)": 0.708}

(Q) # query: self-splicing fitness (ln) of entry GUAUAGCAAUAUUACGAAUG
(A) -3

(Q) Entry under review: UGACAGCAAUAUUACGUUUG . Reported self-splicing fitness (ln)?
(A) -2

(Q) Quick one: self-splicing fitness (ln) of CGAUAGCAAUAUUACGUUGA ?
(A) -2.74

(Q) What does the data say about its self-splicing fitness (ln)? Entry: AGACAGCAAUAUUACGCCUC
(A) -4.48

(Q) What does the data say about its self-splicing fitness (ln)? Entry: CGACAGCAAUAUUACGAAAG
(A) -1.22

(Q) Could you share which self-splicing fitness (ln) value was measured for GAAAAGCAAUAUUACGCCUG ?
(A) -0.929

(Q) Can you share its self-splicing fitness (ln)? I mean this sequence: GAACAGCAAUAUUACGUCGU
(A) -1.5

----------
assay.summary: self-splicing fitness, log relative to wild type (ln ratio); higher = more splicing; Tetrahymena group I intron in knt gene, E. coli kanamycin selection, DiMSum; sequences stand for … in CUCUCU…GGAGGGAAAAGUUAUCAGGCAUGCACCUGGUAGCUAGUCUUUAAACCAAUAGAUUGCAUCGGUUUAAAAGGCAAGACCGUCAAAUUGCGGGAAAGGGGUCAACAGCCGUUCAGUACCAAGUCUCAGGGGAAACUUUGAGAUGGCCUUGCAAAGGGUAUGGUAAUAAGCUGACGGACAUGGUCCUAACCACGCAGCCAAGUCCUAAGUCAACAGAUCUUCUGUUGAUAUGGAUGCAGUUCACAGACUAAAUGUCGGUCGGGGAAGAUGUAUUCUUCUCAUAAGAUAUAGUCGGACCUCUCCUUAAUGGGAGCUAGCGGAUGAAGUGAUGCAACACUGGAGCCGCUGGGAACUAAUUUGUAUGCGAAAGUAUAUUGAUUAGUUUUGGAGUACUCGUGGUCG
test.context: 30 °C
experimental.endpoint: self-splicing fitness (ln)
Keep the answer to the number alone.

Worked examples follow.
{"sequence.string": "CAACAGCAAUAUUACGCGGA", "assay.result": -1.6}
{"sequence.string": "CUUUAGCAAUAUUACGGUAA", "assay.result": -2.37}
{"sequence.string": "CGAUAGCAAUAUUACGCCGG", "assay.result": -0.546}
{"sequence.string": "UGUCAGCAAUAUUACGCACG", "assay.result": -1.06}
{"sequence.string": "GCGGAGCAAUAUUACGUUGU", "assay.result": -2.96}

(Q) Record request: self-splicing fitness (ln) value, item CGUGAGCAAUAUUACGCGAA
(A) -2.35

(Q) # lookup: self-splicing fitness (ln) of CUUCAGCAAUAUUACGAUGC
(A) -2.93

(Q) Data request, read-out self-splicing fitness (ln), for UUCGAGCAAUAUUACGGUGA
(A) -1.33

----------
assay.summary: self-splicing fitness, log relative to wild type (ln ratio); higher = more splicing; Tetrahymena group I intron in knt gene, E. coli kanamycin selection, DiMSum; sequences stand for … in CUCUCU…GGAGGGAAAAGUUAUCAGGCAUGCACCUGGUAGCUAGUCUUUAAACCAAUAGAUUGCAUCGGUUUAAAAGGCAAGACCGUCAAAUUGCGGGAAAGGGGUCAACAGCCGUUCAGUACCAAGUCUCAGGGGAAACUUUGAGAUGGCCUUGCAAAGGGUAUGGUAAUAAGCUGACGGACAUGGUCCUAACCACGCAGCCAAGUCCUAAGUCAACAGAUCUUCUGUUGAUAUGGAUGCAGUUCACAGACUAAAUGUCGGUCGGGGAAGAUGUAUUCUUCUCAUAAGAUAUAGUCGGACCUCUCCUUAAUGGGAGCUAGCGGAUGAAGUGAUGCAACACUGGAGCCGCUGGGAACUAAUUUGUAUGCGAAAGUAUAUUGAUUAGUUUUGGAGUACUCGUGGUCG
test.context: 37 °C
experimental.endpoint: self-splicing fitness (ln)
The response must contain the number and no unit.

// below: answered sequences
{"sequence.string": "UUCGAGCAAUAUUACGUCCG", "self-splicing fitness (ln)": -1.24}
{"sequence.string": "UUAGAGCAAUAUUACGUCCA", "self-splicing fitness (ln)": -1.71}
{"sequence.string": "GUUUAGCAAUAUUACGGUCU", "self-splicing fitness (ln)": -1.05}
{"sequence.string": "ACUGAGCAAUAUUACGUCUC", "self-splicing fitness (ln)": -3.51}
{"sequence.string": "UAACAGCAAUAUUACGACAG", "self-splicing fitness (ln)": -0.435}
{"sequence.string": "AUUUAGCAAUAUUACGCCUG", "self-splicing fitness (ln)": -0.529}
{"sequence.string": "UGUCAGCAAUAUUACGCCAA", "self-splicing fitness (ln)": -0.585}
{"sequence.string": "CAGUAGCAAUAUUACGGUCG", "self-splicing fitness (ln)": 0.084}

(Q) Param item = UUAGAGCAAUAUUACGCGUG ; retrieve measured self-splicing fitness (ln).
(A) 0.00533

(Q) Which self-splicing fitness (ln) is reported for this sequence? AGGUAGCAAUAUUACGGUUC
(A) -1.51

(Q) # input sequence: CUGAAGCAAUAUUACGAGAG ; wanted: its self-splicing fitness (ln)
(A) -1.18

(Q) # get_value(readout='self-splicing fitness (ln)', item= CCUUAGCAAUAUUACGUUAU )
(A) -2.45

----------
assay.summary: self-splicing fitness, log relative to wild type (ln ratio); higher = more splicing; Tetrahymena group I intron in knt gene, E. coli kanamycin selection, DiMSum; sequences stand for … in CUCUCU…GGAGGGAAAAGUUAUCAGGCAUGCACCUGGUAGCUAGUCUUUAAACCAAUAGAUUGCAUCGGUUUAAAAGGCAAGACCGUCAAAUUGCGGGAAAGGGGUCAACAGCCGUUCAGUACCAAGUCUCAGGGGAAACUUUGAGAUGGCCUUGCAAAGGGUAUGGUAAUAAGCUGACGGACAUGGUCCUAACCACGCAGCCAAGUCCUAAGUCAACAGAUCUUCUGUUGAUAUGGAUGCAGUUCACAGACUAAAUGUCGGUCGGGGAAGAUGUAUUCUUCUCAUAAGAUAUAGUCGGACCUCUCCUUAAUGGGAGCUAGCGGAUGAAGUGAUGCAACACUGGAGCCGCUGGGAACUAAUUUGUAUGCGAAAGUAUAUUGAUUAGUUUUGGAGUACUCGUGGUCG
test.context: 30 °C
Each entry falls in a class defined on self-splicing fitness (ln); the bands are bottom end = under -2, midrange = from -2 up to -1, top end = -1 and over

Recorded results for 8 sequences are shown here.
{"sequence.string": "UCAAAGCAAUAUUACGGCUA", "answer.label": "top end"}
{"sequence.string": "UUCAAGCAAUAUUACGACCA", "answer.label": "midrange"}
{"sequence.string": "CACGAGCAAUAUUACGGUCG", "answer.label": "midrange"}
{"sequence.string": "GGUCAGCAAUAUUACGCUUU", "answer.label": "top end"}
{"sequence.string": "UGCAAGCAAUAUUACGGACC", "answer.label": "top end"}
{"sequence.string": "AGUUAGCAAUAUUACGAGGG", "answer.label": "bottom end"}
{"sequence.string": "GUGAAGCAAUAUUACGCUGC", "answer.label": "bottom end"}
{"sequence.string": "CUGCAGCAAUAUUACGUUGU", "answer.label": "bottom end"}

(Q) Returns: class label. Input: GUUAAGCAAUAUUACGGAUA
(A) bottom end

(Q) Place this sequence in its band: AUAAAGCAAUAUUACGAACU
(A) top end

(Q) Each sequence maps to one class by self-splicing fitness (ln). Which class for GUUUAGCAAUAUUACGUGAG ?
(A) top end

(Q) Given UUCAAGCAAUAUUACGGCCC , name the class its self-splicing fitness (ln) places it in.
(A) midrange

(Q) Which class is correct for the following sequence? AUUCAGCAAUAUUACGCAAU
(A) bottom end
